Biological target: human mGluR5 receptor (Homo sapiens (Human))
Sequence (P41594 21-1212): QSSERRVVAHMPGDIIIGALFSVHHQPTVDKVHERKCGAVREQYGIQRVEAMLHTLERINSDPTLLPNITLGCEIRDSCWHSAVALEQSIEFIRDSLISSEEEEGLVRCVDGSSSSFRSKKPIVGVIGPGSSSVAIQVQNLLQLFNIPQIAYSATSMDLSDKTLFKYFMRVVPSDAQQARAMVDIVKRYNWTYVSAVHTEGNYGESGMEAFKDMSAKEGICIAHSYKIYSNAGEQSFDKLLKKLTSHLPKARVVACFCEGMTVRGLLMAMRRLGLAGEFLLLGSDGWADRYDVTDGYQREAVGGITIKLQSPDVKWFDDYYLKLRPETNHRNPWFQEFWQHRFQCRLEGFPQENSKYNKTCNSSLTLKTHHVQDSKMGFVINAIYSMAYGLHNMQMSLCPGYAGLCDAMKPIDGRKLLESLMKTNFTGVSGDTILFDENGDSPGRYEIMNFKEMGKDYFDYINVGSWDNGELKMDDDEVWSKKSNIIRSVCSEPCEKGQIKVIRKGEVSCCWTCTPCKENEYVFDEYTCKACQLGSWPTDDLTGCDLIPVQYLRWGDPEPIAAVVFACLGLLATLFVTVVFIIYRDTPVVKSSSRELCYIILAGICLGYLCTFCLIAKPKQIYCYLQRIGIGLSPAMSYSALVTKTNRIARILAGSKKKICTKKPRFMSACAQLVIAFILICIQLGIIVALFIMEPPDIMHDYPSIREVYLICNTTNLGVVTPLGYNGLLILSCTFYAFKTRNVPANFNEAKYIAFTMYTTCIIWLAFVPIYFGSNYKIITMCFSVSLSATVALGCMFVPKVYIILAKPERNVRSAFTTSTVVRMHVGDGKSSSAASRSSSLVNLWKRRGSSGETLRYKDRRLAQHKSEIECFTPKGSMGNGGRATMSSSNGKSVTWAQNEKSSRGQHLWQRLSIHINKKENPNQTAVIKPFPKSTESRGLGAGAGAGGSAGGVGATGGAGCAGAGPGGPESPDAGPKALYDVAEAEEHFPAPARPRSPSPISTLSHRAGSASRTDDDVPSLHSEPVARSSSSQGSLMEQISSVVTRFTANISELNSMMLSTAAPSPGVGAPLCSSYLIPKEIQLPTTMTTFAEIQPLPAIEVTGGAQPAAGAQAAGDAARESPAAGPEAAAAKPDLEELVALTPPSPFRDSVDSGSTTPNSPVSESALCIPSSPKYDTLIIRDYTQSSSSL
Test: Calcium influx assay based on fluorescence (mGluR5 PAM activity)
Conditions: human mGluR5 receptor-overexpressed HEK293 cell line; L-glutamate EC20; Fluo-4, FLIPR
recorded-metric: EC50

{"columns": ["mol", "EC50"],
 "data": [
  ["COc1cc(F)ccc1-c1cnc2nc(COc3ccccc3)cn2c1", "100 to 500 nM"]
]}

# EC50 of FC(F)(F)c1ccc(-c2cnc3nc(COc4ccccn4)cn3c2)cn1 = 100 to 500 nM

# EC50 of Oc1cc(-c2cnc3nc(COc4cccc(F)c4)cn3c2)ccc1F = 100 to 500 nM
